These measurements were taken from the supplement of paper PMC6555819.

Test system: VDR:RXRa (NR concentration 270 nM, RXRa partner concentration 90 nM)
ASSAY OVERVIEW: PBM binding z-score (relative to random genomic background probes); higher = stronger binding; sequences stand for … in GC…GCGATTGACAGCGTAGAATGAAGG
# PBM binding z-score binned as lo = under 0.3, med = from 0.3 up to 3, hi = 3 and over

Ask | Form: Item = `CGAACTAGGTCATCCGGGACAGTGAATACATTGA` ; Class = ?
Reply | hi

Ask | Form: Item = `TCGAGTAGGTTAGGCGCATTCAGAATGGCGTCGA` ; Class = ?
Reply | lo

Ask | Form: Item = `TAGCATAGGTCAGATCGGGCCAGTATACGCTATA` ; Class = ?
Reply | med

Ask | Form: Item = `ATATGTAGGTTACATCCGGGTCATTCCGGCTATG` ; Class = ?
Reply | hi

Ask | Form: Item = `CCTGCTTGGTCAATGGTCAGCTAAAGCAGCTCGC` ; Class = ?
Reply | lo

Ask | Form: Item = `TCTGCTAGGTCAACGATGGCCAGCTAATCTGCTA` ; Class = ?
Reply | med

Ask | Form: Item = `CGTCCAAGGTCATAGGAGGTCAGTCAAGACAGAT` ; Class = ?
Reply | hi

Ask | Form: Item = `CCTTACGGGTCACTGACTGGTTATAGCATTTGGA` ; Class = ?
Reply | hi

Ask | Form: Item = `TCGAGTAGGTTACCAATGCGGCATTCAGCTTTCT` ; Class = ?
Reply | lo

Ask | Form: Item = `CCTACTGGGCCATCAGGTCACTGATATCAACGTT` ; Class = ?
Reply | med

###

Test system: LXRb:RXRa (NR concentration 270 nM, RXRa partner concentration 90 nM)
ASSAY OVERVIEW: PBM binding z-score (relative to random genomic background probes); higher = stronger binding; sequences stand for … in GC…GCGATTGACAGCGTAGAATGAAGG
RECORDED METRIC: PBM binding z-score
// no unit, no text: just the number

Ask | If you can, please state the reported PBM binding z-score value of `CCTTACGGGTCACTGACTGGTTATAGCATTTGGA` .
Reply | 3.15

Ask | If you can, please state the reported PBM binding z-score value of `AGAATGAGGTTACCAAAGATCAGGGTAACGCTTG` .
Reply | 3.22

Ask | If you can, please state the reported PBM binding z-score value of `ATATGTAGGTTAAGGGTCCTTCAGGTTGGTTCGC` .
Reply | 1.18

Ask | If you can, please state the reported PBM binding z-score value of `ATATGTAGGTTACCTCCGGGTCATTCAGGCTATG` .
Reply | 3.15

Ask | If you can, please state the reported PBM binding z-score value of `TCAGACAGGTGAAGGTAGCTCAGGTACGCAGTCG` .
Reply | 0.434

Ask | If you can, please state the reported PBM binding z-score value of `GGAACGAGGGCGAAGTTGATAGCATCTGTCGACG` .
Reply | -0.637

Ask | If you can, please state the reported PBM binding z-score value of `TATACAGGGTCGAAGGCCAGAGTACGAATGTCGA` .
Reply | 1.01

Ask | If you can, please state the reported PBM binding z-score value of `TAGCCTAGGTCTTGGGCCAGTATACCACGCGAAC` .
Reply | -0.334

Ask | If you can, please state the reported PBM binding z-score value of `GCTAGCAGGCCATTTGGGTCCCTCAATGACGGGC` .
Reply | -1.21

Ask | If you can, please state the reported PBM binding z-score value of `ATCTCTAGGTAATGTTCAGTGAAAGATCGATAGA` .
Reply | 0.107

Ask | If you can, please state the reported PBM binding z-score value of `ACTAGCAGGCCAAGTTTGGGTCACTAAAACAAAG` .
Reply | 0.749

Ask | If you can, please state the reported PBM binding z-score value of `TCTTGTAGATCATGCAGGTTAAGAAAGCCTGAGT` .
Reply | 0.657
